Cited source: patent US11377442B2

Target: NR2F6 (Homo sapiens, UniProt P10588)
Construct: expressed in transfected cells; also transient transfection
Sequence (P10588 whole entry): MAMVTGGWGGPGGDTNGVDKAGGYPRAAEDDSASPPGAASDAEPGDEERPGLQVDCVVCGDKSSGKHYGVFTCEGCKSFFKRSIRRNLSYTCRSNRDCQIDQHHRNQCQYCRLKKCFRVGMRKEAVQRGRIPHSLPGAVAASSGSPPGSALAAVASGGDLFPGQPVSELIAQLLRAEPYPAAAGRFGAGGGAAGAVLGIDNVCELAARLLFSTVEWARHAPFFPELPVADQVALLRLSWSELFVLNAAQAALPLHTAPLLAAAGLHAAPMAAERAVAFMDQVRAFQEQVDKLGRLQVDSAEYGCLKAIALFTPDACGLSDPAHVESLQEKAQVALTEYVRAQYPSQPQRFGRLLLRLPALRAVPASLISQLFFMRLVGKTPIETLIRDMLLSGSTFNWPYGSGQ
Test: NR2F6 agonist screening, Firefly signal cmpd/DMSO
Format: cell-based
Design: unit of the concentration uncertain
Conditions: Concentration 2 (unit uncertain); F4
Readout Label: Firefly F4, cmpd/DMSO (mean)
Reply with just the number.

COc1ccc(S(=O)(=O)NCc2nc3nc(C)cc(C)n3n2)cc1OC : 1.0
Cc1ccc(S(=O)(=O)N(Cc2nc3nc(C)c(S)c(C)n3n2)c2ccccc2)cc1 : 1.0

Kindly review the next compound as well.
IN: Recorded Firefly F4, cmpd/DMSO (mean) of "Cc1ccc(S(=O)(=O)NCc2cn3ccccc3n2)c(C)c1" , please.
OUT: 1.0

---

Molecular target: NR2F6 (Homo sapiens, UniProt P10588)
Construct: expressed in transfected cells; also transient transfection
Test: NR2F6 agonist screening, Firefly signal cmpd/DMSO
Type: cell-based
Conditions: 1% FBS; 10 uM
Classify as follows. Reported Firefly, F4/pGL4 for S/B(F4) > 3 greater than or equal to 2: yes (1). Reported Firefly, F4/pGL4 for S/B(F4) > 3 below: no (0).

CCCCN(C)[C@H]1CS(=O)(=O)C[C@@H]1S(=O)(=O)c1ccc(Cl)cc1 : no (0)

IN: Would you say "CC(C)CN[C@H]1CS(=O)(=O)C[C@@H]1S(=O)(=O)c1ccc(Cl)cc1" shows Firefly, F4/pGL4 for S/B(F4) > 3 at minimum 2?
OUT: no (0)

IN: Would you say "O=S1(=O)C[C@H](NC2CCCCCC2)[C@@H](S(=O)(=O)c2ccc(Cl)cc2)C1" shows Firefly, F4/pGL4 for S/B(F4) > 3 at minimum 2?
OUT: no (0)

IN: Would you say "O=S1(=O)C[C@H](NCCCc2ccccc2)[C@@H](S(=O)(=O)c2ccc(Cl)cc2)C1" shows Firefly, F4/pGL4 for S/B(F4) > 3 at minimum 2?
OUT: yes (1)

---

Tested on: HEK293 pGL4
Assay: Firefly_pGL signal, cmpd/DMSO (pGL4 control cells)
Assay type: cell-based
Conditions: Homo sapiens, HEK293, Table 14; 2 uM; read-out: Firefly pGL4, cmpd/DMSO (mean)
Readout Label: fold induction at 2 µM
Reply with just the number.

Examples with their reported fold induction at 2 µM follow.
O=C(COc1ccccc1C(=O)N1CCOCC1)NCCc1ccccc1 : 1.6
CCOC(=O)c1cnn2c(-c3ccc(Cl)cc3)ccnc12 : 1

IN: Recorded fold induction at 2 µM of "Cc1cc(C)n2nc(CNS(=O)(=O)c3ccc(F)cc3)nc2n1" , please.
OUT: 0.9

IN: Recorded fold induction at 2 µM of "Cc1cc(C)n2nc(CNS(=O)(=O)c3c(F)c(F)c(F)c(F)c3F)nc2n1" , please.
OUT: 0.8

IN: Recorded fold induction at 2 µM of "CCOC(=O)c1cnc2c(C)cc(C)cc2c1NCc1ccccc1" , please.
OUT: 0.7

IN: Recorded fold induction at 2 µM of "Cc1ccc(NC(=O)c2noc3c2CCC3)cc1C" , please.
OUT: 2.4

---

System: Renilla_ERa
Test: Renilla signal in ERα counterscreen (Renilla_ERa)
Format: cell-based
Conditions: Table 15; 10 uM; read-out: Renilla ERalpha transient, cmpd/DMSO (mean)
Items are presented alongside their recorded fold induction at 10 µM.
Reply with just the number.

Examples with their reported fold induction at 10 µM follow.
CCOC(=O)c1cnc2c(C)cc(C)cc2c1NCCCN1CCCC1 : 0.8
COc1cccc(-c2noc(Cn3ncccc3=O)n2)c1 : 1
CCOC(=O)c1cnc2c(C)cc(C)cc2c1NCCCN : 1.1

Kindly review the next compound as well.
IN: Recorded fold induction at 10 µM of "CCOC(=O)c1cnc2c(C)cc(C)cc2c1NCCCO" , please.
OUT: 1
